Tested on: pre-oligodendrocytes
Protocol Description: Pre-oligodendrocyte proliferation, CyQUANT NF Cell Proliferation assay
Assay type: cell-based, rat
Condition Description: exposure 72-96 h, 1 nM to 100 μM, cellular DNA content fluorescence
Property Label: pIC50
// field semantics: pIC50 = negative decimal log of concentration (mol/L)

# pIC50 of CC(O)(C(=O)Nc1ccc(S(=O)(=O)c2ccccc2)cc1)C(F)(F)F (stereo not shown) = 5.60
